The variants listed here are annotated with their reverse-splicing fitness.
B1: Azoarcus group I ribozyme (parent)
chain: GUGCCUUGCGCCGGGAAACCACGCAAGGGAUGGUGUCAAAUUCGGCGAAACCUAAGCGCCCGCCCGGGCGUAUGGCAACGCCGAGCCAAGCUUCGGCGCCUGCGCCGAUGAAGGUGUAGAGACUAGACGGCACCCACCUAAGGCAAACGCUAUGGUGAAGGCAUAGUCCAGGGAGUGGCGAAAGUCACACAAACCGG

Variants of: B1
Assay: reverse-splicing fitness (ratio to wild type); higher = more active; in vitro selection; Mg2+ level not given
READOUT TYPE: reverse-splicing fitness

variant_descriptor="A111G A145C C150A" value_reported=0.229
variant_descriptor="C82U A111G A120G A145U U176C" value_reported=0.0141
variant_descriptor="C82A A120G A145C C169G U176C" value_reported=0.0162
variant_descriptor="C82G A111G A120G A145U C150G C169G U176G" value_reported=0.00457
variant_descriptor="A111U A120U A145U C150A U176C" value_reported=0.0269
variant_descriptor="A120U A145C C150G U176A" value_reported=0.132
variant_descriptor="C82G A111U A145G C150U C169G" value_reported=0.00982
variant_descriptor="A111G A145G C150G C169A" value_reported=0.0128
variant_descriptor="C82U A120G A145G C150A U176C" value_reported=0.0182
variant_descriptor="C82G A120G A145G C150A C169G U176C" value_reported=0.0296
variant_descriptor="C82A A111C A120G A145G C150U U176A" value_reported=0.00883
variant_descriptor="C82U A111U A120U A145G C150A U176C" value_reported=0.00627
variant_descriptor="C82A A111C A120G A145U C150A C169G" value_reported=0.00777
variant_descriptor="C82U A111G A120U A145C C169A U176C" value_reported=0.00194
variant_descriptor="A111G A145G C150A C169G" value_reported=0.0238
variant_descriptor="C82U A120U A145U C150A C169A" value_reported=0.00179
variant_descriptor="A120C A145U C150G C169A U176G" value_reported=0.0044
variant_descriptor="C82G A111U C169G U176A" value_reported=0.0157
variant_descriptor="A111G A120C A145C C150U C169A U176C" value_reported=0.00426
variant_descriptor="C82A A111C A120C A145G C150A U176A" value_reported=0.00956
variant_descriptor="C82U A111C A120U A145U C150A C169U U176C" value_reported=0.00256
variant_descriptor=C169U value_reported=0.407
